# Cell viability of M1 macrophages values compiled below
# Test system: M1 macrophages
# measurementDescription: Differentiation analysis, cell viability of M1 macrophages
# Type: cell-based, human
# conditionNotes: LPS-induced M1 differentiation, 6 days; control 100%
Please state the figure in %; there is no need to write the unit.

Worked set:
compound	Cell viability of M1 macrophages (%)
COC1=CC(=O)[C@@]2(c3cc(=O)c4ccc(O)cc4o3)[C@H](CC=C(C)[C@@H]2C[C@]2(C)[C@@H](C(=O)O)CC=C3[C@H]2CCCC3(C)C)C1=O [Mib-10]	82.5
COC1=CC(=O)[C@@]2(c3cc(=O)c4c(O)cc(OC)cc4o3)[C@H](C[C@]3(C)[C@@H](C(=O)O)CC=C4[C@H]3CCCC4(C)C)C(C)=CC[C@H]2C1=O [Mib-6]	57.2
COC1=CC(=O)[C@@]2(c3cc(=O)c4ccc(OC)cc4o3)[C@H](C[C@]3(C)[C@@H](C(=O)O)CC=C4[C@H]3CCCC4(C)C)C(C)=CC[C@H]2C1=O [Mib-5]	63.5

INPUT: Item COC1=CC(=O)[C@@]2(c3cc(=O)c4c(O)cc(O)cc4o3)[C@H](C[C@]3(C)[C@@H](C(=O)O)CC=C4[C@H]3CCCC4(C)C)C(C)=CC[C@H]2C1=O [Mib-7] has what recorded Cell viability of M1 macrophages?
OUTPUT: 82.5

INPUT: Entry under review: COC1=CC(=O)[C@@]2(c3cc(=O)c4c(O)cc(O)cc4o3)[C@H](CC=C(C)[C@@H]2C[C@]2(C)[C@@H](C(=O)O)CC=C3[C@H]2CCCC3(C)C)C1=O [Mib-8] . Reported Cell viability of M1 macrophages?
OUTPUT: 79.4

Origin of the recorded values: patent US10745370B2
